Assign MFI at 0.032 nM to each entry below.
biological target: human delta-like ligand 3 (DLL3) on SHP77 cells (human) (UniProt Q9NYJ7); test: FACS on SHP77 cells
Sequence (Q9NYJ7 27-618, stated change not applied): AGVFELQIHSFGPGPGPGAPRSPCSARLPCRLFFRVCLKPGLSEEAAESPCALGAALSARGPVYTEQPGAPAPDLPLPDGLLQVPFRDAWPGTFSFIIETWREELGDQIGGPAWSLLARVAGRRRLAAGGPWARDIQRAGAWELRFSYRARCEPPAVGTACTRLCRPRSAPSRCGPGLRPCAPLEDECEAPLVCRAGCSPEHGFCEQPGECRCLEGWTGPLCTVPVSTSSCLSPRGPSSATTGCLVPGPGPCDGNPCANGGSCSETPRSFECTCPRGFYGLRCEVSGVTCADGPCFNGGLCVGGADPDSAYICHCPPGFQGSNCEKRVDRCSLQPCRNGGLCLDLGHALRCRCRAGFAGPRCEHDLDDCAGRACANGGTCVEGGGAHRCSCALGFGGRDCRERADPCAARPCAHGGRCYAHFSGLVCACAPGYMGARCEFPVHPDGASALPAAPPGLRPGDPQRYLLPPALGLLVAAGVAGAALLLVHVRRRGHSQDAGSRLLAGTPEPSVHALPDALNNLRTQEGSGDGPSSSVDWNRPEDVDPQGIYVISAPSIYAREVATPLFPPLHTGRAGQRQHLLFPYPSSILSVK
Answers are plain numbers, in MFI.

The binder identified as Hab006VL1VH4-hFc (scFv, part only; not given: VL-VH linker and human IgG1 Fc, V domains shown, not shown: another chain or arm of the molecule; a dimerising Fc or GST; small tags and cut ends) VL: DIQMTQSPSSLSASVGDRVTITCRATKSISKYLAWYQQKPGKAPKLLIFSGSTLQSGVPSRFSGSGSGTDFTLTISSLQPEDFATYYCQQHHEYPYTFGGGTKVEIK VH: EVQLVQSGAEVKKPGASVKVSCKASGYTFTSYWMHWVRQAPGQRLEWMGVIDPSDSLANYNQEFKGRVTLTVDTSSSTAYMELSSLRSEDTAVYYCARDSTVVAPMDYWGQGTTVTVSS registered its MFI at 0.032 nM at 458

# map each binder to its MFI at 0.032 nM
1. Hab014VL2VH1-hFc (scFv, part only; not given: scFv linker and human IgG1 Fc, V domains shown, not shown: another chain or arm of the molecule; a dimerising Fc or GST; small tags and cut ends) VL: DIQMTQSPSSLSASVGDRVTITCKASEDIYNRLAWYQQKPGKVPKLLISGATSLETGVPSRFSGSGSGKDFTLTISSLQPEDVATYYCQQYWSLPWTFGGGTKVEIK VH: EVQLVQSGAEVKKPGASVKVSCKASGYTFTDYYMNWVRQAPGQRLEWMGDINPNHGDTGYNQKFTGRVTITVDKSASTAYMELSSLRSEDTAVYYCARNFFYYGTTYGWYFDVWGQGTTVTVSS
2. Hab015VL5VH1a-hFc (scFv, part only; not given: scFv linker and human IgG1 Fc, V domains shown, not shown: another chain or arm of the molecule; a dimerising Fc or GST; small tags and cut ends) VL: NIQMTQSPSSLSASVGDRVTITCKASENVGTYVSWYQQKPGKSPKLLIYGASNRYTGVPSRFSGSGSGTDFTLTISSLQPEDFATYYCGQFYSFPSTFGGGTKVEIK VH: EVQLVESGGGLVKPGGSLRLSCAASGITFSNFWMNWVRQAPGKGLEWVGQIRLKSDDYATHYAESVKGRFTISREDSKNTVYLQMNSLKTEDTAVYYCTTGYYFDYWGQGTTVTVSS
3. Hab006VL4VH2-hFc (scFv, part only; not given: scFv linker and human IgG1 Fc, V domains shown, not shown: another chain or arm of the molecule; a dimerising Fc or GST; small tags and cut ends) VL: DIVMTQSPDSLAVSLGERATINCRATKSISKYLAWYQQKPGQTNKLLIFSGSTLQSGVPDRFSGSGSGTDFTLTISSLQAEDVAVYYCQQHHEYPYTFGGGTKVEIK VH: EVQLVQSGAEVKKPGASVKVSCKASGYTFTSYWMHWVRQAPGQRLEWMGVIDPSDSLANYNQEFKGRVTLTVDTSASTAYMELSSLRSEDTAVYYCARDSTVVAPMDYWGQGTTVTVSS
4. Hab015VL4VH6a-hFc (scFv, part only; not given: scFv linker and human IgG1 Fc, V domains shown, not shown: another chain or arm of the molecule; a dimerising Fc or GST; small tags and cut ends) VL: NIVLTQSPATLSLSPGERATLSCKASENVGTYVSWFQQKPGQSPRLLIYGASNRYTGIPARFSGSGSGTDFTLTISSLEPEDFAVYYCGQFYSFPSTFGGGTKVEIK VH: EVQLVESGGGLVKPGGSLRLSCAASGITFSNFWMNWVRQAPEKGLEWVGQIRLKSDDYATHYAESVKGRFTISREDSKNTVYLQMNSLKTEDTAVYYCTTGYYFDYWGQGTTVTVSS

Result:
120
185
528
173
